For each entry below, report its half-life value.
- test: Stability in simulated intestinal fluid
- Type: in vitro ADME
- condition_info: simulated gi fluid; 2 μM, 37° C., pH 7.5; read-out: half-life (t1/2) in simulated intestinal fluid
Where a SMILES comes first, the peptide text is derived from it. [ ]: non-standard residue; d: D form. ξ: configuration not given here. ξαMeBip(2'-Et,4'-OMe) = CCc1cc(OC)ccc1-c1ccc(CC(C)(N)C(=O)O)cc1; ξαMePhe(2,6-F2) = CC(N)(Cc1c(F)cccc1F)C(=O)O; ξαMe(hhPhe) = CC(N)(CCCc1ccccc1)C(=O)O; ξhhPhe = NC(CCCc1ccccc1)C(=O)O; ξαMeS = CC(N)(CO)C(=O)O

{"columns": ["molecule", "endpoint", "data_value"],
 "data": [
  ["CCc1cc(OC)ccc1-c1ccc(CC(C)(NC(=O)[C@H](CC(=O)O)NC(=O)C(C)(CO)NC(=O)[C@@H](NC(=O)[C@H](Cc2ccccc2)NC(=O)[C@@H](NC(=O)CNC(=O)[C@H](CCC(=O)O)NC(=O)[C@H](C)NC(=O)[C@H](Cc2c[nH]cn2)NC(=O)[C@@H](N)C(C)C)[C@@H](C)O)[C@@H](C)O)C(=O)NC(CCCc2ccccc2)C(N)=O)cc1 (some centres unmarked) [compound 38] (H-VHAEGTFT[ξαMeS]D[ξαMeBip(2'-Et,4'-OMe)][ξhhPhe]-NH2)", "half-life", "> 24 h"]
]}

In the following, a different molecule is considered.
Prompt line: Record request: half-life value, item CCc1cc(OC)ccc1-c1ccc(CC(C)(NC(=O)[C@H](CC(=O)O)NC(=O)C(C)(CO)NC(=O)[C@@H](NC(=O)C(C)(Cc2c(F)cccc2F)NC(=O)[C@@H](NC(=O)CNC(=O)[C@H](CCC(=O)O)NC(=O)[C@H](C)NC(=O)[C@H](Cc2c[nH]cn2)NC(=O)[C@@H](N)C(C)C)[C@@H](C)O)[C@@H](C)O)C(=O)NC(C)(CCCc2ccccc2)C(N)=O)cc1 (some centres unmarked) [compound 178] (H-VHAEGT[ξαMePhe(2,6-F2)]T[ξαMeS]D[ξαMeBip(2'-Et,4'-OMe)][ξαMe(hhPhe)]-NH2)
Response line: > 24 h
